System: RPMI-8226
Assay: NCI tumour cell line growth inhibition, 48 h
Calls of active or inactive are those of the source. Cut-off read from the data, not from the text of the source: active = GI50 up to about 1.1 µM and inactive = higher.
# output must be one of active, inactive

Solved cases below.
>  <Compound>
Cc1ccc(/C=N\NC2c3cc(Cl)ccc3Nc3nc(O)nc(C)c32)cc1 (stereo not drawn)

>  <Target Or Test System>
RPMI-8226

>  <Label Value>
inactive

$$$$
>  <Compound>
CC(CC[C@@H](C)C1CCC2[C@@H]3CC(O)C4CC(O)[C@@H](O)C[C@]4(C)C3CC[C@@]21C)C(C)(C)C (stereo partly drawn)

>  <Target Or Test System>
RPMI-8226

>  <Label Value>
inactive

$$$$
>  <Compound>
COC(=O)/C(C#N)=C1\NC(=O)CC(c2ccccc2)C1C#N (stereo not drawn)

>  <Target Or Test System>
RPMI-8226

>  <Label Value>
inactive

$$$$
>  <Compound>
COC(=O)C1=C(c2cc(OC)c(OC)c(OC)c2)OC(c2cc(OC)c(OC)c(OC)c2)C1 (stereo not drawn)

>  <Target Or Test System>
RPMI-8226

>  <Label Value>
inactive

$$$$

Q: // param item: C1=C2/CC[C@H](Sc3ccccc3)[C@H]2C2(CCCCC/1)OCCO2 ; yields the recorded call
Result: inactive

Q: // param item: CC(=O)OCC1OC(n2c(-c3ccccc3)c(/N=N/c3ccccc3)c(C)c(C#N)c2=S)C(OC(C)=O)C(OC(C)=O)C1OC(C)=O (stereo not drawn) ; yields the recorded call
Result: inactive

Q: // param item: O=C(c1ccccc1)n1[nH]c(=O)n(-c2ccc(Cl)cc2)c1=O ; yields the recorded call
Result: inactive

Q: // param item: COc1cc(C2c3cc4c(cc3OC(NCCO)C2C)OCO4)cc(OC)c1OC (stereo not drawn) ; yields the recorded call
Result: active

Q: // param item: c1cc(Sc2nc(Sc3ccncc3)nc(Sc3ccncc3)n2)ccn1 ; yields the recorded call
Result: inactive

Q: // param item: COc1c(O)cc2ccnc3c2c1N(C)C=C3 ; yields the recorded call
Result: inactive

Q: // param item: COC(=O)C1=C(C(=O)OC)SC(=C(/N=N/c2ccccc2)c2ccccc2)S1 ; yields the recorded call
Result: inactive

---

Test system: SW-620
Assay: NCI tumour cell line growth inhibition, 48 h
Active and inactive are the calls of the source. Rule as the data show it: active = GI50 up to about 1.1 µM and inactive = higher.
# output must be one of active, inactive

>  <Molecule>
CC(C)c1ccc2c(c1)C=C1OC(=O)[C@]3(C)CCC[C@@]2(C)C13 (stereo not given in full)

>  <Label Value>
inactive

$$$$

Q: // param item: O=C1C(Cl)=C(OCCCl)C(=O)c2c(O)ccc(O)c21 ; yields the recorded call
Result: inactive

Q: // param item: N#Cc1c(-c2ccccc2)cc(Nc2cccc(C(F)(F)F)c2)n2c1nc1ccccc12 ; yields the recorded call
Result: inactive

---

Test system: UACC-62
Assay: NCI tumour cell line growth inhibition, 48 h
Calls of active or inactive are those of the source. Rule as the data show it: active = GI50 up to about 1.1 µM and inactive = higher.
Experimental Readout: GI50

Completed entries (count: 2):
>  <Molecule>
CCCC(=O)Nc1cc(C(=O)N2C[C@H]3C[C@@]34C2=CC(=O)c2[nH]cc(C)c24)n(COC)c1

>  <GI50>
0.195 µM (active)

$$$$
>  <Molecule>
O=C1c2cccc3cccc(c23)C(=O)N1CCN(CCO)CCO

>  <GI50>
20.6 µM (inactive)

$$$$

Recorded result, CCOC(=O)/C(=C\c1ccc(OCc2ccccc2)c(OC)c1)C(=O)c1ccccc1 , GI50: 23.3 µM (inactive)

Recorded result, CC1CCCP(=O)(c2ccccc2)CC1 (stereo unspecified) , GI50: > 100 µM (inactive)

Recorded result, COC(=O)C1CC2(c3ccccc3)C(=O)c3ccccc3N2O1 (stereo unspecified) , GI50: 34 µM (inactive)

Recorded result, O=C1CSC(c2c[nH]c3ccccc23)N1c1ccccc1[N+](=O)[O-] (stereo unspecified) , GI50: > 100 µM (inactive)

Recorded result, O=CC(=C(I)I)c1ccccc1 , GI50: 6.08 µM (inactive)

Recorded result, O=C1OC(c2ccccc2)=N/C1=C\c1cn[nH]n1 , GI50: > 100 µM (inactive)

Recorded result, COc1cc(C(=O)OC2CC34CCNC35CC(OC5(OC)C2O)c2cc3c(cc24)OCO3)ccc1O (stereo unspecified) , GI50: > 100 µM (inactive)

Recorded result, CCOC(=O)c1csc(-c2nc(CCNC(=O)c3ccccc3)sc2Cl)n1 , GI50: 59.3 µM (inactive)

Recorded result, COC1(OC)CCC2(C)OC(c3ccccc3)C1O2 (stereo unspecified) , GI50: > 100 µM (inactive)

Recorded result, O=C1/C(=C/c2ccc([N+](=O)[O-])cc2)CCCc2ccccc21 , GI50: 91 µM (inactive)

Recorded result, CN1C(=N\S(=O)(=O)c2ccc(Cl)cc2)/C(=N/N=P(c2ccccc2)(c2ccccc2)c2ccccc2)c2ccccc21 , GI50: > 100 µM (inactive)

Recorded result, COc1ccc(S(=O)(=O)c2ccccc2[N+](=O)[O-])cc1 , GI50: > 100 µM (inactive)

---

# maps each entry to its GI50
Test system: SK-OV-3
Assay: NCI tumour cell line growth inhibition, 48 h
The source made the active and inactive calls. No stated cut-off is given here; in the data, active = GI50 up to about 1.1 µM and inactive = higher.

Completed entries (count: 3):
>  <Compound>
COc1ccc2c(c1)C(N)=C(c1ccccc1)C2=O

>  <Test Result>
49 µM (inactive)

$$$$
>  <Compound>
CC(=O)CCC1(C(=O)OCC(C)C)CCCC1=O (stereo not given)

>  <Test Result>
> 100 µM (inactive)

$$$$
>  <Compound>
CC(=O)OCC1OC(n2c(-c3ccccc3)c(/N=N/c3ccccc3)c(C)c(C#N)c2=S)C(OC(C)=O)C(OC(C)=O)C1OC(C)=O (stereo not given)

>  <Test Result>
> 100 µM (inactive)

$$$$

Tested system SK-OV-3; GI50 recorded for C1=C2/CC[C@H](Sc3ccccc3)[C@H]2C2(CCCCC/1)OCCO2 was 31 µM (inactive)

Tested system SK-OV-3; GI50 recorded for COc1ccc(/C=N/Nc2nc(C)c3c(n2)Nc2ccccc2NC3=O)cc1 was > 100 µM (inactive)

Tested system SK-OV-3; GI50 recorded for N#Cc1c2c(c(N)oc1=O)C(c1ccccc1)CC(=O)N2 (stereo not given) was > 100 µM (inactive)

---

Test system: UO-31
Assay: NCI tumour cell line growth inhibition, 48 h
Active and inactive are the calls of the source. No stated cut-off is given here; in the data, active = GI50 up to about 1.1 µM and inactive = higher.
Experimental Readout: GI50

Completed entries (count: 4):
>  <Molecule>
c1ccc2c(CN3CCN(Cc4c[nH]c5ccccc45)CC3)c[nH]c2c1

>  <Target Or Test System>
UO-31

>  <GI50>
14.6 µM (inactive)

$$$$
>  <Molecule>
Nc1cc2c(c3ccccc13)C(CCl)CN2C(=O)c1cc2cc(NC(=O)c3cc4ccccc4o3)ccc2[nH]1 (stereo not given)

>  <Target Or Test System>
UO-31

>  <GI50>
0.00128 µM (active)

$$$$
>  <Molecule>
CCCCCCCCCCCCCCCCCC(=O)OCC1OC(OC)C(NC(=O)N(CCCl)N=O)C(O)C1O (stereo not given)

>  <Target Or Test System>
UO-31

>  <GI50>
24.3 µM (inactive)

$$$$
>  <Molecule>
Cc1cc(Cl)ccc1NC(=O)/C(Cc1nc2ccc(C(=O)c3ccccc3)cc2nc1O)=N/NC(=O)c1ccncc1

>  <Target Or Test System>
UO-31

>  <GI50>
53.8 µM (inactive)

$$$$

Next molecule, please.
Tested system UO-31; GI50 recorded for O=C(Cn1cc(F)c(=O)[nH]c1=O)C12CC3CC(CC(C3)C1)C2 was > 100 µM (inactive)

---

Tested on: SF-268
Assay: NCI tumour cell line growth inhibition, 48 h
The source made the active and inactive calls. Cut-off read from the data, not from the text of the source: active = GI50 up to about 1.1 µM and inactive = higher.
# output must be one of active, inactive

>  <Compound>
COC(=O)C1=C(OC(=O)/C(=C/c2ccc(Cl)cc2)c2ccc(Cl)cc2)C(C(=O)OC)[C@]2(O)[C@@H](C(=O)OC)[C@H]1C[C@@H](c1ccccc1)[C@@H]2C(=O)OC (stereo partly specified)

>  <Label Value>
inactive

$$$$
>  <Compound>
COc1ccc2c(CCNS(=O)(=O)c3ccccc3)c(C(C)=O)[nH]c2c1

>  <Label Value>
inactive

$$$$
>  <Compound>
COC(=O)C1(C)CC2C(C)(CCC3(C)C4=CC=C5C(=CC(=O)C(O)=C5C)C4(C)CCC23C)CC1O (stereo unspecified)

>  <Label Value>
active

$$$$
>  <Compound>
COc1ccc(-c2cc(N3CCN(c4ccc(Cl)cc4)CC3)c(C#N)c(=O)o2)cc1

>  <Label Value>
inactive

$$$$
>  <Compound>
CCCCCCCCCCCCCCCCNc1ccc2c(c1)OCCOCCOCCOCCO2

>  <Label Value>
inactive

$$$$
>  <Compound>
Cc1c(C)c2c(c(N)c1C#N)C(=O)N(Cc1ccc(S(N)(=O)=O)cc1)C2=O

>  <Label Value>
inactive

$$$$

Q: // param item: CC1=CP(=O)(OC(C)C)CC(C)=C1Cl (stereo unspecified) ; yields the recorded call
Result: inactive

Q: // param item: Cc1cc2c(c(S(=O)(=O)c3ccccc3[N+](=O)[O-])c1)NCCC2 ; yields the recorded call
Result: inactive

Q: // param item: COc1nc(N)c(NC(C)=O)c(=O)n1C ; yields the recorded call
Result: inactive

Q: // param item: NNC(=O)c1nnn(N)c1S ; yields the recorded call
Result: inactive
